- Experiment: Intrinsic clearance in human liver microsomes
- Type: ADME, Microsome
- Test context: read-out: CLH
Outcome measure: microsomal CLint (µL/min/mg)
One number for each entry, in µL/min/mg.

Cc1cc(Nc2nn(C3CC3)c3cnc(S(=O)(=O)N4CCOCC4)cc23)ccc1F; 38

Query: microsomal CLint; subject: Cc1cc(Nc2nn(C3CC3)c3ccc(S(=O)(=O)N4CCOCC4)cc23)ccc1F
41

---

- System: Hepatitis B virus
- Experiment: Antiviral activity against HBV infected in human HepG2.A64 cells containing reverse transcriptase L180M/T184L/M204V mutant assessed as reduction in viral replication incubated for 6 days by PCR analysis
- Assay type: functional, organism-based
- Test context: HepG2.A64, 144 h
Outcome measure: pEC50
Numbers only, as −log10 of the molar value.

Please state pEC50 for every compound in the list that follows.
1. CCOC(=O)C1=C(CN2CCOCC2)NC(c2nccs2)=NC1c1ccc(F)cc1Br (configuration not stated)
2. CC[C@@H](C)NS(=O)(=O)c1ccc(F)c(C(=O)Nc2ccc(F)c(F)c2)c1
3. O=S(=O)(c1cc2c(Nc3ccc(F)c(C(F)F)c3)nn(C3CC3)c2cn1)N1CCC(O)CC1
4. C[C@H](Cn1cnc2c(N)ncnc21)OCP(=O)(O)O [TENOFOVIR ANHYDROUS]
5. Cc1cc(Nc2nn(C3CC3)c3cnc(S(=O)(=O)N4CCC(O)CC4)cc23)ccc1F

1. 8.20
2. 7.32
3. 8.66
4. 6.08
5. 9.60

The reported measurements were obtained from ChEMBL document CHEMBL4602735.
